# method_description: Bioavailability: blood plasma nicotine levels after inhalation of air from the glass columns
# Format: in vivo
# protocol_conditions: human, inhaled or intranasal, column at 75 °C, test persons abstained from nicotine for 12 h, read-out: Plasma nicotine, peak value
metric_name: Cmax

> print(dat)
                              compound          result
1  CN1CCCC1c1cccnc1 (stereo not shown)  10 to 15 ng/mL
